test system: TDF; test: H1.0 immunofluorescence intensity relative to DMSO (% of DMSO); higher = stronger H1.0 induction, active = 120 or more; details: concentration: 10 µM; 24 h;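 further: TDF is a line of transformed human dermal fibroblasts of mesenchymal origin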
endpointName: H1.0 immunofluorescence intensity

INSERT INTO results (molecule, recordedresult) VALUES
  ('O=c1oc2cc(O)ccc2c2oc3cc(O)ccc3c12', 97.6),
  ('Nc1ccn(C2CCC(CO)O2)c(=O)n1 (stereo unspecified) [2'',3''-dideoxycytidine]', 89.2),
  ('CC1c2cccc(O)c2C(O)=C2C(=O)C3(O)C(O)=C(C(N)=O)C(=O)C(N(C)C)C3C(O)C21.Cl (stereo unspecified) [Doxycycline hydrochloride]', 96.9),
  ('CCOC(=O)[C@H](Cc1ccc([N+](=O)[O-])cc1)NC(=O)c1ccccc1 [ethyl (2S)-2-(benzoylamino)-3-(4-nitrophenyl)propanoate]', 93.8),
  ('CCCCCCCCC=CCCCCCCCCCCC(=O)O [12(Z) Heneicosenoic acid]', 95.5),
  ('CCCCCCCCC=CCCCCCCCCCCCC(=O)O [13(Z)-Docosenoic acid]', 95.2),
  ('COc1ccc(C(=O)NCc2ccc(OCCN(C)C)cc2)cc1OC [Itopride]', 92),
  ('CN=C(NC#N)NCCSCc1csc(N=C(N)N)n1', 105),
  ('CN1CCN(C2=Nc3ccccc3Sc3ccc(Cl)cc32)CC1', 94),
  ('CC(=O)N[C@@H](CS)C(=O)O', 109),
  ('CN(C)CCC=C1c2ccccc2Sc2ccc(Cl)cc21.Cl [Chlorprothixene hydrochloride]', 116),
  ('C#CC1(O)CCC2C3CCC4=Cc5oncc5CC4(C)C3CCC21C (stereo unspecified)', 95.4),
  ('Br.CN=c1nc(-c2ccccc2)n(-c2ccccc2)s1', 90.9),
  ('CC12CCc3occc3C1CCC13CC(CCC12)C(O)(CO)C3 (stereo unspecified)', 103),
  ('Cl.Fc1ccc(C(OCCCc2cnc[nH]2)c2ccc(F)cc2)cc1', 88.3),
  ('NC1(C(=O)O)CCc2cc(C(=O)O)ccc21 (stereo unspecified)', 88.5);
